The measured values listed here are drawn from the supplement of paper PMC10899765.

tested on: MCF10A; experiment: percent viability (nuclei count relative to siNT); higher = more viable cells; settings: 20 nM; 72 h
A collection of sequences and their measured percent viability

# chain, testedTarget, percent viability, %
measured = [
    ("UCCAUGUUUCCUUCCCCCUUCU [hsa-miR-4716-5p]", "MCF10A", 28.8),
    ("ACAGCAGGCACAGACAGGCAGU [hsa-miR-214-3p]", "MCF10A", 19.3),
    ("UGGGAAAGAGAAAGAACAAGUA [hsa-miR-6739-5p]", "MCF10A", 51.5),
    ("UGUGUCCGGGAAGUGGAGGAGG [hsa-miR-4669]", "MCF10A", 74.6),
    ("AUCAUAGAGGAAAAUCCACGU [hsa-miR-376a-3p]", "MCF10A", 52.2),
    ("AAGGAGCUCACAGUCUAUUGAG [hsa-miR-28-5p]", "MCF10A", 39),
    ("AAAGGUAAUUGUGGUUUCUGC [hsa-miR-548ag]", "MCF10A", 75.7),
    ("AGGGCCCCCCCUCAAUCCUGU [hsa-miR-296-5p]", "MCF10A", 49.5),
    ("AGACCCUGCAGCCUUCCCACC [hsa-miR-4725-5p]", "MCF10A", 36),
    ("GGAUGGAGGAGGGGUCU [hsa-miR-4534]", "MCF10A", 46.8),
    ("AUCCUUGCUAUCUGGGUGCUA [hsa-miR-502-5p]", "MCF10A", 40.4),
    ("CAGGUCGUCUUGCAGGGCUUCU [hsa-miR-431-3p]", "MCF10A", 35.3),
    ("UGAGUGGGGCUCCCGGGACGGCG [hsa-miR-4745-5p]", "MCF10A", 57.7),
    ("UUAAUGCUAAUCGUGAUAGGGGU [hsa-miR-155-5p]", "MCF10A", 38.2),
    ("GCGACCCACUCUUGGUUUCCA [hsa-miR-551a]", "MCF10A", 81.6),
    ("ACUUUCCUCACUCCCGUGAAGU [hsa-miR-3124-3p]", "MCF10A", 115),
    ("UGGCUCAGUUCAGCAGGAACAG [hsa-miR-24-3p]", "MCF10A", 26.5),
    ("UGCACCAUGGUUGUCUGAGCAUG [hsa-miR-767-5p]", "MCF10A", 65.4),
    ("ACCUGAAUUACCAAAAGCUUU [hsa-miR-3140-5p]", "MCF10A", 118),
    ("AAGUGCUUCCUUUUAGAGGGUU [hsa-miR-520f]", "MCF10A", 46.9),
    ("GGAUUCCUGGAAAUACUGUUCU [hsa-miR-145-3p]", "MCF10A", 55.6),
    ("GGGGUUCCUGGGGAUGGGAUUU [hsa-miR-23a-5p]", "MCF10A", 103),
    ("CCCAGGGCUUGGAGUGGGGCAAGGUU [hsa-miR-4685-5p]", "MCF10A", 69.2),
    ("ACUUGGGCAGGAGGGACCCUGUAUG [hsa-miR-6774-5p]", "MCF10A", 22),
]
